assay_procedure: Phosphate binding studies of various lanthanum carbonate hydrates
study_conditions: 5 min; pH 3.0; two-fold molar excess of lanthanum carbonate hydrate over phosphate
measured_attribute: % Phosphate removed (%)
Respond with the bare value in %.

See these solved cases before continuing.
In [3]: df
Out[3]:
                                   compound   measured_attribute  unit_text  reading
0  O.O=C([O-])[O-].O=C([O-])[O-].O=C([O-])[O-].[La+3].[La+3] [Monohydrate]  % Phosphate removed          %    87.10
1  O.O.O.O.O.O.O=C([O-])[O-].O=C([O-])[O-].O=C([O-])[O-].[La+3].[La+3] [Hexahydrate]  % Phosphate removed          %    79.73
2  O.O.O.O.O=C([O-])[O-].O=C([O-])[O-].O=C([O-])[O-].[La+3].[La+3] [Tetrahydrate, lanthanum carbonate tetrahydrate]  % Phosphate removed          %    87.20

Attention now turns to another entry.
Task item: State its % Phosphate removed for this compound: O.O.O=C([O-])[O-].O=C([O-])[O-].O=C([O-])[O-].[La+3].[La+3] [Dihydrate, lanthanum carbonate dihydrate]
Reply: 93.00

---

# % Phosphate removed listing for each entry below
assay_procedure: Phosphate binding studies of various lanthanum carbonate hydrates
study_conditions: 7 min; pH 3.0; two-fold molar excess of lanthanum carbonate hydrate over phosphate
Numbers only; they are read as %.

The following compounds have reported results that may help.
>>> print(df.to_string())
                                   compound  reading
0  O.O.O=C([O-])[O-].O=C([O-])[O-].O=C([O-])[O-].[La+3].[La+3] [Dihydrate, lanthanum carbonate dihydrate]    99.45
1  O.O=C([O-])[O-].O=C([O-])[O-].O=C([O-])[O-].[La+3].[La+3] [Monohydrate]    91.72
2  O.O.O.O.O=C([O-])[O-].O=C([O-])[O-].O=C([O-])[O-].[La+3].[La+3] [Tetrahydrate, lanthanum carbonate tetrahydrate]    81.21

With those in mind, consider the next compound.
Task item: Output % Phosphate removed of O.O.O.O.O.O.O=C([O-])[O-].O=C([O-])[O-].O=C([O-])[O-].[La+3].[La+3] [Hexahydrate]
Reply: 76.12

---

assay_procedure: Phosphate binding studies of various lanthanum carbonate hydrates
study_conditions: 10 min; pH 3.0; two-fold molar excess of lanthanum carbonate hydrate over phosphate
Experimental: To study the phosphate binding activity of lanthanum carbonate dihdyrate, other hydrates of lanthanum carbonate (monohydrate, tetrahydrate and hexahydrate) were prepared. • a) A stock solution of standard phosphate was prepared by dissolving 13.75 g of Na2HPO4 in 1 L deionised water after adjusting the pH to 3.0 with […]. • b) Above stock solution (5 ml) was diluted with 90 ml water adjusted the pH to 3.0 with conc. […]
Measured % Phosphate removed, listed per entry.
State just the number; it will be interpreted in %.

>>> print(df.to_string())
                                   molecule   measured_attribute  reading
0  O.O.O.O.O=C([O-])[O-].O=C([O-])[O-].O=C([O-])[O-].[La+3].[La+3] [Tetrahydrate, lanthanum carbonate tetrahydrate]  % Phosphate removed    82.80

Task item: Output % Phosphate removed of O.O=C([O-])[O-].O=C([O-])[O-].O=C([O-])[O-].[La+3].[La+3] [Monohydrate]
Reply: 98.30

Task item: Identify measured % Phosphate removed corresponding to O.O.O=C([O-])[O-].O=C([O-])[O-].O=C([O-])[O-].[La+3].[La+3] [Dihydrate, lanthanum carbonate dihydrate]
Reply: 99.17

Task item: Note % Phosphate removed for the molecule shown: O.O.O.O.O.O.O=C([O-])[O-].O=C([O-])[O-].O=C([O-])[O-].[La+3].[La+3] [Hexahydrate]
Reply: 81.15
